Recorded measurements of OD450, one per entry
- EXPERIMENTAL SYSTEM: T1, human MSLN-R3-his protein (human, UniProt Q13421 487-598)
- T1 construct: it is put last here; also called human MSLN-R3 protein; hMSLN-R3-his; not shown: His tag
- T1 sequence (Q13421 495-606): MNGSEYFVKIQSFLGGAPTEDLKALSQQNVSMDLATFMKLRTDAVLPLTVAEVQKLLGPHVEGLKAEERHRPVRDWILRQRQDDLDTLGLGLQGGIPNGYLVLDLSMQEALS
- RUN DESCRIPTION: ELISA on coated antigen, antibody 0.2 nM
// units = OD; emit number, no label

Give its OD450 value. Item: S009-F7.18.10 (antibody, human IgG1, kappa, V domains shown, Human-murine chimeric antibody, human IgG1 heavy and kappa light constant regions) VH: QVQLQQSGAELVRPGTSVKVSCKASGYAFTNYLIEWVKQRPGQGLEWIGVINPGSGGTKYNEKFKGKATLTADKSSSTAYMQLSSLTSEDSAVYFCASDYDYDPFAYWGQGTLVTVSA VL: DIVMTQSHKFMSTSVGDRVSITCKASQDVSTAVAWYQRKPGQSPKLLIYWASTRHTGVPDRFTGSGSGTDYTLTISYMQAEDLALYYCQQHYSTPYTFGGGTKLEIKR
0.06

More entries:
Value lookup for OD450; key = S009-F7.53.2 (antibody, human IgG1, kappa, V domains shown, Human-murine chimeric antibody, human IgG1 heavy and kappa light constant regions) VH: EVQLQQSGPELVKPGASVKIPCKTSGYTFTDYNMDWVKQSHGKSLEWIGDINPNTDGAIYNQKFQNKATLTVDKSSSTAYMELRSLTSEDTAVYYCTRRKLGRKFFDYWGQGTTLTVSS VL: QIVLTQSPAIMSASPGEQVTMTCSASSSVGYMNWYQQKPGSSPRLLIYDTSNLASGVPVHFSGSGSGTSYSLTISRMEAAFAATYYCQQWYVYPYTFGGGTKLEIKR
0.5
